// provenance: patent US12180280

- experimental.target: T1, monkey CD3 epsilon (cynomolgus monkey, UniProt Q95LI5)
- T1 chain: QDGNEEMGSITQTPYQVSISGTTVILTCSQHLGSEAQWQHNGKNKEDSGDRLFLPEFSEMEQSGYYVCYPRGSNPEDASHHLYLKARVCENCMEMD
- test.details: SPR
Kd overview

binder	units.label	Kd
15H3L3 (antibody, V domains shown) VH: EVQLLESGGGLVQPGGSLRLSCAASGFTFNTYAMNWVRQAPGKGLEWVARIRSKYNNYATYYAISVKDRFTISRDDSKNTLYLQMNSLRAEDTAMYYCVRHGNFGNSYLSYWAYWGQGTLVTVSS VL: QAVVTQEPSLTVSPGGTVTLTCQSSTGAVTTNNYANWVQQKPGHAFRGLIGGTKQRAPGVPARFSGSLLGGKAALTLSGVQPEDEAEYYCVLWYSNLWVFGGGTKLTVL	nM	0.616
15H2L3 (antibody, V domains shown) VH: EVQLLESGGGLVQPGGSLRLSCAASGFTFNTYAMNWVRQAPGKGLEWVARIRSKYNNYATYYAISVKDRFTISRDNSKNTLYLQMNSLRAEDTAVYYCVKHGNFGNSYLSYWAYWGQGTLVTVSS VL: QAVVTQEPSLTVSPGGTVTLTCQSSTGAVTTNNYANWVQQKPGHAFRGLIGGTKQRAPGVPARFSGSLLGGKAALTLSGVQPEDEAEYYCVLWYSNLWVFGGGTKLTVL	nM	0.777
26H2L3 (antibody, V domains shown) VH: EVQLLESGGGLVQPGGSLRLSCAASGFTFNTYAMNWVRQAPGKGLEWVARIRSKYNNYATYYADSVKDRFTISRDNSKNTLYLQMNSLRAEDTAVYYCVKHGNFGNSYISWWAYWGQGTLVTVSS VL: QAVVTQEPSLTVSPGGTVTLTCKSSTGAVTTSNYANWVQQKPGHAFRGLIGGTNLHAPGVPARFSGSLLGGKAALTLSGVQPEDEAEYYCALWYSNLWVFGGGTKLTVL	nM	2.27
15H2L2 (antibody, V domains shown) VH: EVQLLESGGGLVQPGGSLRLSCAASGFTFNTYAMNWVRQAPGKGLEWVARIRSKYNNYATYYAISVKDRFTISRDNSKNTLYLQMNSLRAEDTAVYYCVKHGNFGNSYLSYWAYWGQGTLVTVSS VL: QTVVTQEPSLTVSPGGTVTLTCQSSTGAVTTNNYANWVQQKPGQAPRALIGGTKQRAPGTPARFSGSLLGGKAALTLSGVQPEDEAEYYCVLWYSNLWVFGGGTKLTVL	nM	5.84
